# system_name: β-secretase (BACE) (Homo sapiens)
# Construct: purchased Panvera
# Sequence (P56817 46-501): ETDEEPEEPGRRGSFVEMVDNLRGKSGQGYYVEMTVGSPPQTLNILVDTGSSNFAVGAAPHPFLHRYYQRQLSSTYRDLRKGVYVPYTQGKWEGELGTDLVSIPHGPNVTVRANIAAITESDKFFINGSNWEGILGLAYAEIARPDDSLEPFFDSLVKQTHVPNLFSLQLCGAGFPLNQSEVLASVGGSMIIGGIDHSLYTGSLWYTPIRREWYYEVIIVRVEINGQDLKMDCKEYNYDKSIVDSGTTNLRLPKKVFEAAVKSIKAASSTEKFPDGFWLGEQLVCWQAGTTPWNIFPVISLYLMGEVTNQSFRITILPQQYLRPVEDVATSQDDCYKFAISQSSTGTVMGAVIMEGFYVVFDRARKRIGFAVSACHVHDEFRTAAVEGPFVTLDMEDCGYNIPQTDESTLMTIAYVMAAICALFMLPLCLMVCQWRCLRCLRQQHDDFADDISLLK
# experiment_description: BACE FS1 Assay (% Inhibition and Ki)
# Assay type: biochemical
# measurement_context: 0.3 μM test compound; FS1 substrate; read-out: % Inhibition (FS) @ 0.3 μM
Short version: inhibition at 0.3 µM at least 90% is True, less is False.

compound | label_class
CC(C)[C@H](CCC(=O)N(C)C1CCC(c2nnn[nH]2)CC1)N1Cc2cc(Oc3ccccc3)ncc2N=C1N (stereo partly shown) [Compound 13] | False
CC(C)[C@H](CCC(=O)N(C)[C@H]1CC[C@@H](C(=O)O)CC1)N1Cc2cc(Oc3ccccc3)ncc2N=C1N [Compound 43] | True
NC1=Nc2cnc(Oc3ccccc3)cc2CN1[C@@H](CCC(=O)N(CCO)[C@H]1CC[C@@H](C(=O)O)CC1)C1CCCCC1 [Compound 37] | True
CN(C(=O)CCC(CCO)N1Cc2cc(Oc3ccccc3)ncc2N=C1N)C1CCCCC1 (stereo not shown) [Compound 22] | False
CCOC(=O)C1CCC(N(CCO)C(=O)CCC(C(C)C)N2Cc3cc(Oc4ccccc4)ncc3N=C2N)CC1 (stereo not shown) [Compound 14] | False

Shifting focus to the compound that follows.
Quick check, inhibition at 0.3 µM >= 90%? CC(C)C(CCC(=O)N(CCO)C1CCC(C#N)CC1)N1Cc2cc(Oc3ccccc3)ncc2N=C1N (stereo not shown) [Compound 10] False
